Biological target: T1, Recombinant soluble E protein (0.8E-His) from DENV-4 (DENV-4, UniProt P09866 280-674)
T1 construct: also called DENV-4 E protein; DV4
Assay: SPR, Biacore T200
Measure name: binding result

DG_3CH1047-SG182/3CL666-SK1 (antibody, V domains shown) VH: QVQLVQSGPDVEKPGASVKVSCKASGYTFTSYYMHWVRQAPGQGLEWMGVINPRGGSRRSAQKFQGRITMTRDTSTSTVYMELSSLRSEDTAVYYCARGGEALFYDSYTTPFDGGSWWFDPWGQGSLVTVSS VL: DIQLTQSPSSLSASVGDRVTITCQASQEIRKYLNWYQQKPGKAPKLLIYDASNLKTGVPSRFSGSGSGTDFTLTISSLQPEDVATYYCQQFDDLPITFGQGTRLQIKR = binds
DG_3CH987-SG182/3CL119-SK1 (antibody, V domains shown) VH: QVQLVQSGPDVEKPGASVKVSCKASGYTFTSYYIHWVRQAPGQGLEWMGVINPRGGSRRSAQKFQGRITMTRDTSTSTVYMELSSLRSEDTAVYYCARGGRALFYDSYTTPFDGGSWWFDPWGQGSLVTVSS VL: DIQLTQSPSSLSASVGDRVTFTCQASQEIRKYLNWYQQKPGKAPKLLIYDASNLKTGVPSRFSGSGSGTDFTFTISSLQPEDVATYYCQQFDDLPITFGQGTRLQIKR = binds
DG_3CH1046-SG182/3CL-SK1 (antibody, V domains shown) VH: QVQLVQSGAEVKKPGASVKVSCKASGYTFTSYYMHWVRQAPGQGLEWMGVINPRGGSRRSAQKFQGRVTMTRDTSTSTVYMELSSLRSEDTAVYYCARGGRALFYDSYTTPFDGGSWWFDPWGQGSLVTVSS VL: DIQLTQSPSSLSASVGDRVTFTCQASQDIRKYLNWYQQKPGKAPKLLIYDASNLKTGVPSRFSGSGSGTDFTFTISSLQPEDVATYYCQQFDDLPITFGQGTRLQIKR = binds
